Where do the numbers come from? From patent US20110172296A1.

% inhibition overview
Test system: human TGF-beta1 mRNA
experiment.summary: Antisense inhibition of human TGF-beta1 mRNA in HuVEC cells, single 10 nM dose, Lipofectamine 2000 (Example 2)
Assay type: cell-based
condition.label: 10 nM oligonucleotide, HuVEC, relative to untreated control cells; gapmers targeted to SEQ ID NO: 1
In the oligonucleotide strings, read from the 5' end, every base follows the letter of its sugar. An asterisk marks phosphorothioate; unmarked linkages are phosphodiester. Other units and linkages are bracketed, terminal groups are in braces. A string of capitals states the bases alone. e = 2'-O-(2-methoxyethyl) (MOE); [5mC] = 5-methylcytosine; d = 2'-deoxy (DNA)
property.label: % inhibition

[
  {
    "substance": "414004 (antisense eA*eG*dA*dA*dG*dG*dT*dG*dG*dG*dT*dG*dG*dT*d[5mC]*eT*eT*eG*eA*eA) [compound 414004]",
    "property.label": "% inhibition",
    "val": "70%"
  },
  {
    "substance": "414041 (antisense eA*e[5mC]*dA*dG*dA*dG*dA*dT*d[5mC]*d[5mC]*dG*d[5mC]*dA*dG*dT*e[5mC]*e[5mC]*eT*e[5mC]*eT) [compound 414041]",
    "property.label": "% inhibition",
    "val": "74%"
  },
  {
    "substance": "414035 (antisense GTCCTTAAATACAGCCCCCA; sugars from the 5' end e2 d13 e5, backbone and methylation of C not given here) [compound 414035]",
    "property.label": "% inhibition",
    "val": "89%"
  },
  {
    "substance": "413977 (antisense e[5mC]*e[5mC]*d[5mC]*dA*dG*d[5mC]*dG*dG*d[5mC]*dA*dA*d[5mC]*dG*dG*dA*eA*eA*eA*eG*eT) [compound 413977]",
    "property.label": "% inhibition",
    "val": "57%"
  },
  {
    "substance": "414042 (antisense e[5mC]*eG*d[5mC]*d[5mC]*d[5mC]*dA*dA*dT*dG*dA*d[5mC]*dA*d[5mC]*dA*dG*eA*eG*eA*eT*e[5mC]) [compound 414042]",
    "property.label": "% inhibition",
    "val": "68%"
  },
  {
    "substance": "413971 (antisense eG*eG*d[5mC]*d[5mC]*dT*d[5mC]*dA*dG*dG*d[5mC]*dT*dG*d[5mC]*dT*d[5mC]*e[5mC]*eT*e[5mC]*eG*eG) [compound 413971]",
    "property.label": "% inhibition",
    "val": "78%"
  },
  {
    "substance": "414022 (antisense eG*eG*dG*d[5mC]*dT*d[5mC]*d[5mC]*dG*dG*dT*dT*d[5mC]*dT*dG*d[5mC]*eA*e[5mC]*eT*e[5mC]*eT) [compound 414022]",
    "property.label": "% inhibition",
    "val": "84%"
  },
  {
    "substance": "413968 (antisense eG*eA*dG*dA*dT*dG*dG*d[5mC]*d[5mC]*d[5mC]*dA*dG*dG*dG*d[5mC]*eG*e[5mC]*eG*eA*eA) [compound 413968]",
    "property.label": "% inhibition",
    "val": "55%"
  },
  {
    "substance": "414009 (antisense eA*eT*d[5mC]*dT*dG*dG*dT*dA*d[5mC]*d[5mC]*dA*dG*dA*dA*dG*eG*eT*eG*eG*eG) [compound 414009]",
    "property.label": "% inhibition",
    "val": "80%"
  },
  {
    "substance": "414011 (antisense e[5mC]*eG*d[5mC]*dG*dA*dT*d[5mC]*dT*dG*dG*dT*dA*d[5mC]*d[5mC]*dA*eG*eA*eA*eG*eG) [compound 414011]",
    "property.label": "% inhibition",
    "val": "85%"
  },
  {
    "substance": "414010 (antisense e[5mC]*eG*dA*dT*d[5mC]*dT*dG*dG*dT*dA*d[5mC]*d[5mC]*dA*dG*dA*eA*eG*eG*eT*eG) [compound 414010]",
    "property.label": "% inhibition",
    "val": "88%"
  }
]

* * *

Tested on: BALB/c mice
experiment.summary: Tolerability in BALB/c mice: plasma transaminases ALT and AST (Example 7)
condition.label: 25 mg/kg twice a week, plasma, Week 2
In the oligonucleotide strings, read from the 5' end, every base follows the letter of its sugar. An asterisk marks phosphorothioate; unmarked linkages are phosphodiester. Other units and linkages are bracketed, terminal groups are in braces. A string of capitals states the bases alone. e = 2'-O-(2-methoxyethyl) (MOE); [5mC] = 5-methylcytosine; d = 2'-deoxy (DNA)

[
  {
    "substance": "414040 (antisense e[5mC]*eT*d[5mC]*dT*d[5mC]*dT*d[5mC]*d[5mC]*dA*dT*d[5mC]*dT*dT*dT*dA*eA*eT*eG*eG*eG) [compound 414040]",
    "tgt": "BALB/c mice",
    "unit.tag": "IU/L",
    "aspartate transaminase levels": 128
  },
  {
    "substance": "413982 (antisense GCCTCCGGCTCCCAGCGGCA; sugars from the 5' end e2 d13 e5, backbone and methylation of C not given here) [compound 413982]",
    "tgt": "BALB/c mice",
    "unit.tag": "IU/L",
    "aspartate transaminase levels": 74
  },
  {
    "substance": "414036 (antisense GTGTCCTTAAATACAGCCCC; sugars from the 5' end e2 d13 e5, backbone and methylation of C not given here) [compound 414036]",
    "tgt": "BALB/c mice",
    "unit.tag": "IU/L",
    "aspartate transaminase levels": 119
  },
  {
    "substance": "414035 (antisense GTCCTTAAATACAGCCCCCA; sugars from the 5' end e2 d13 e5, backbone and methylation of C not given here) [compound 414035]",
    "tgt": "BALB/c mice",
    "unit.tag": "IU/L",
    "aspartate transaminase levels": 82
  }
]

* * *

% inhibition overview
Tested on: human TGF-beta1 mRNA
experiment.summary: Antisense inhibition of human TGF-beta1 mRNA in HuVEC cells, single 10 nM dose, Lipofectamine 2000 (Example 2)
Format: cell-based
condition.label: 10 nM oligonucleotide, HuVEC, relative to untreated control cells; gapmers targeted to SEQ ID NO: 2
In the oligonucleotide strings, read from the 5' end, every base follows the letter of its sugar. An asterisk marks phosphorothioate; unmarked linkages are phosphodiester. Other units and linkages are bracketed, terminal groups are in braces. A string of capitals states the bases alone. e = 2'-O-(2-methoxyethyl) (MOE); [5mC] = 5-methylcytosine; d = 2'-deoxy (DNA)

[
  {
    "substance": "414104 (antisense eA*eG*dG*dA*dT*dT*d[5mC]*dA*dA*dG*dT*dA*dA*dG*dG*eT*e[5mC]*eT*eA*e[5mC]) [compound 414104]",
    "tgt": "human TGF-beta1 mRNA",
    "unit.tag": "%",
    "% inhibition": 61
  },
  {
    "substance": "414047 (antisense e[5mC]*e[5mC]*dT*dG*d[5mC]*d[5mC]*d[5mC]*d[5mC]*dT*dT*dG*dG*dT*dG*dG*eA*eA*eG*e[5mC]*eG) [compound 414047]",
    "tgt": "human TGF-beta1 mRNA",
    "unit.tag": "%",
    "% inhibition": 41
  },
  {
    "substance": "414116 (antisense e[5mC]*eT*dG*dG*dA*dT*dG*dA*dG*dA*dG*dT*dT*dT*dA*e[5mC]*eG*eG*eG*e[5mC]) [compound 414116]",
    "tgt": "human TGF-beta1 mRNA",
    "unit.tag": "%",
    "% inhibition": 83
  }
]

* * *

Test system: human TGF-beta1 mRNA
experiment.summary: Dose-dependent confirmation of antisense inhibition of human TGF-beta1 in HuVEC cells, electroporation (Example 6)
Assay type: cell-based
condition.label: 0.625 nM oligonucleotide
In the oligonucleotide strings, read from the 5' end, every base follows the letter of its sugar. An asterisk marks phosphorothioate; unmarked linkages are phosphodiester. Other units and linkages are bracketed, terminal groups are in braces. A string of capitals states the bases alone. e = 2'-O-(2-methoxyethyl) (MOE); [5mC] = 5-methylcytosine; d = 2'-deoxy (DNA)
property.label: percent inhibition of TGF-beta1 mRNA relative to untreated control cells (%)

[
  {
    "substance": "413982 (antisense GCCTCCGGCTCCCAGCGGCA; sugars from the 5' end e2 d13 e5, backbone and methylation of C not given here) [compound 413982]",
    "val": 57
  },
  {
    "substance": "414036 (antisense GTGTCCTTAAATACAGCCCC; sugars from the 5' end e2 d13 e5, backbone and methylation of C not given here) [compound 414036]",
    "val": 55
  },
  {
    "substance": "414035 (antisense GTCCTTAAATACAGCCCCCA; sugars from the 5' end e2 d13 e5, backbone and methylation of C not given here) [compound 414035]",
    "val": 63
  },
  {
    "substance": "414040 (antisense e[5mC]*eT*d[5mC]*dT*d[5mC]*dT*d[5mC]*d[5mC]*dA*dT*d[5mC]*dT*dT*dT*dA*eA*eT*eG*eG*eG) [compound 414040]",
    "val": 81
  }
]
